target: Cytochrome P450 2C19 (Homo sapiens)
Sequence (P33261 whole entry): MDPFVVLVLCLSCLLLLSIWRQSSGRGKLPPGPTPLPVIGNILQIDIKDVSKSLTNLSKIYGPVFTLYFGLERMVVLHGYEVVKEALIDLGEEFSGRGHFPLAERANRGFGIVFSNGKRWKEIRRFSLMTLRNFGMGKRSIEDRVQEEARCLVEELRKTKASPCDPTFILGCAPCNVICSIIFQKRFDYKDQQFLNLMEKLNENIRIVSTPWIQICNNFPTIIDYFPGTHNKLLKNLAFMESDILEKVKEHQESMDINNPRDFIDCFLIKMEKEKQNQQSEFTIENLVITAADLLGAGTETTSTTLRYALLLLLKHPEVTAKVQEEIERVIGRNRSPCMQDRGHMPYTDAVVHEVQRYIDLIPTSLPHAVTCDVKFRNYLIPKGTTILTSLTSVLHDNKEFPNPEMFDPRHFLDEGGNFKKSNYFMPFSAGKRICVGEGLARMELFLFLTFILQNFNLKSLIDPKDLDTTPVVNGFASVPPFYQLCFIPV
pIC50: −log10 of the molar value.
measure.name: pIC50

COc1cc(Cl)ccc1O[C@@H](c1ccccc1)[C@@H]1CNCCO1 < 4.54

---

pKi: −log10 of the molar value.
The following compounds each carry a recorded pKi for Sodium-dependent noradrenaline transporter (Homo sapiens, UniProt P23975).
measure.name: pKi

compound	tested.on	reported.result
c1ccc([C@@H](Oc2cccc3c2OCC3)[C@H]2CNCCO2)cc1	Sodium-dependent noradrenaline transporter (Homo sapiens, UniProt P23975)	6.46
COc1cc(Cl)ccc1O[C@@H](c1cccc(F)c1)[C@@H]1CNCCO1	Sodium-dependent noradrenaline transporter (Homo sapiens, UniProt P23975)	8.05
COc1cc(Cl)ccc1O[C@@H](c1ccccc1C)[C@@H]1CNCCO1	Sodium-dependent noradrenaline transporter (Homo sapiens, UniProt P23975)	7.08
COc1ccc(O[C@@H](c2ccccc2)[C@@H]2CNCCO2)c(Cl)c1	Sodium-dependent noradrenaline transporter (Homo sapiens, UniProt P23975)	7.55
CCOc1c(Cl)cccc1OC(c1ccccc1)C1CNCCO1 (racemic; syn)	Sodium-dependent noradrenaline transporter (Homo sapiens, UniProt P23975)	6.56
CCOc1cc(Cl)ccc1OC(c1ccccc1)C1CNCCO1 (racemic; syn)	Sodium-dependent noradrenaline transporter (Homo sapiens, UniProt P23975)	7.82
COc1cc(Cl)ccc1O[C@@H](c1ccccc1F)[C@@H]1CNCCO1	Sodium-dependent noradrenaline transporter (Homo sapiens, UniProt P23975)	7.66
COc1cc(C#N)ccc1O[C@@H](c1ccccc1)[C@@H]1CNCCO1	Sodium-dependent noradrenaline transporter (Homo sapiens, UniProt P23975)	6.68
CCOc1cc(Cl)ccc1OC(c1ccccc1)C1CNCCO1 (racemic; anti)	Sodium-dependent noradrenaline transporter (Homo sapiens, UniProt P23975)	6.41
Cc1cc(F)ccc1O[C@@H](c1ccccc1)[C@@H]1CNCCO1	Sodium-dependent noradrenaline transporter (Homo sapiens, UniProt P23975)	7.74
CCOc1c(Cl)cccc1OC(c1ccccc1)C1CNCCO1 (racemic; anti)	Sodium-dependent noradrenaline transporter (Homo sapiens, UniProt P23975)	5.83
c1ccc([C@H](Oc2cccc3c2OCC3)[C@@H]2CNCCO2)cc1	Sodium-dependent noradrenaline transporter (Homo sapiens, UniProt P23975)	7.92

---

test: Partition coefficient, log D at pH 7.4; format: physicochemical; details: octanol/water

compound	logD
COc1cc(Cl)ccc1OC(c1ccccc1)C1CNCCO1 (racemic; syn)	1.9

---

target: Sodium-dependent dopamine transporter (Homo sapiens, UniProt Q01959); conditions: hek293
Sequence (Q01959 whole entry): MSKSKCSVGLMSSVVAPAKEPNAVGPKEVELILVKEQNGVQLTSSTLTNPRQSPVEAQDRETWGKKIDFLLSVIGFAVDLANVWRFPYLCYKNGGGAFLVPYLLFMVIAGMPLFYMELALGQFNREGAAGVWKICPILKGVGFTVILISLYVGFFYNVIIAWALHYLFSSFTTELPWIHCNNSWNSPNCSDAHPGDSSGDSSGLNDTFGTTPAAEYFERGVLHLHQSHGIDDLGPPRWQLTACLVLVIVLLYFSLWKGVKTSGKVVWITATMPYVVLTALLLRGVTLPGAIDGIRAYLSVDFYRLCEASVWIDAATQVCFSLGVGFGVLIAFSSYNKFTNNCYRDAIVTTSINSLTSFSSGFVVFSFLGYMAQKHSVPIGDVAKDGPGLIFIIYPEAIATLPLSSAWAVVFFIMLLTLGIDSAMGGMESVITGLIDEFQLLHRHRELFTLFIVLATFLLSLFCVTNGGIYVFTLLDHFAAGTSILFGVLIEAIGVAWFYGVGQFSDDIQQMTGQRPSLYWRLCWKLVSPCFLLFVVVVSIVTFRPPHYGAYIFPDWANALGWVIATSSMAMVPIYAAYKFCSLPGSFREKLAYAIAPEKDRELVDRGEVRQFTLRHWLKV
Description: Inhibition of [3H]dopamine reuptake at human DAT expressed in HEK293 cells

molecule	Ki
CCOc1c(Cl)cccc1OC(c1ccccc1)C1CNCCO1 (racemic; syn)	> 10 µM

---

target: UniProt P35367
Sequence (P35367 whole entry): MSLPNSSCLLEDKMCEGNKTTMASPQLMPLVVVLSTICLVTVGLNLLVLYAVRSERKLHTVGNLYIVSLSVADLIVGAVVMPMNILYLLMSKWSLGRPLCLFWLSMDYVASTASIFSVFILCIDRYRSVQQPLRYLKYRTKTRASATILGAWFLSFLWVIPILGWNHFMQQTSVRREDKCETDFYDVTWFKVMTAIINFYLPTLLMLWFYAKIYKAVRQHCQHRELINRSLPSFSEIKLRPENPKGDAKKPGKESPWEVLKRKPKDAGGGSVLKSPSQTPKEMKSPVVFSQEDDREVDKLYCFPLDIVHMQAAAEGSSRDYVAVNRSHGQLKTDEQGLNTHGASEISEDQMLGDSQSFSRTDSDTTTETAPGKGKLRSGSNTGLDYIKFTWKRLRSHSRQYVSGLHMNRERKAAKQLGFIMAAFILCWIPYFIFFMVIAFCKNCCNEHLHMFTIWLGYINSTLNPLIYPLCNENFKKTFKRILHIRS
Entries and their measured Ki follow.
measure.name: Ki (nM)

Fc1cccc(O[C@H](c2ccccc2)[C@H]2CNCCO2)c1F 10
Fc1ccc(O[C@H](c2ccccc2)[C@H]2CNCCO2)c(Cl)c1 10
c1ccc([C@@H](Oc2cccc3c2OCC3)[C@H]2CNCCO2)cc1 10

---

molecular target: Voltage-gated inwardly rectifying potassium channel KCNH2 (Homo sapiens)
Sequence (Q12809 whole entry): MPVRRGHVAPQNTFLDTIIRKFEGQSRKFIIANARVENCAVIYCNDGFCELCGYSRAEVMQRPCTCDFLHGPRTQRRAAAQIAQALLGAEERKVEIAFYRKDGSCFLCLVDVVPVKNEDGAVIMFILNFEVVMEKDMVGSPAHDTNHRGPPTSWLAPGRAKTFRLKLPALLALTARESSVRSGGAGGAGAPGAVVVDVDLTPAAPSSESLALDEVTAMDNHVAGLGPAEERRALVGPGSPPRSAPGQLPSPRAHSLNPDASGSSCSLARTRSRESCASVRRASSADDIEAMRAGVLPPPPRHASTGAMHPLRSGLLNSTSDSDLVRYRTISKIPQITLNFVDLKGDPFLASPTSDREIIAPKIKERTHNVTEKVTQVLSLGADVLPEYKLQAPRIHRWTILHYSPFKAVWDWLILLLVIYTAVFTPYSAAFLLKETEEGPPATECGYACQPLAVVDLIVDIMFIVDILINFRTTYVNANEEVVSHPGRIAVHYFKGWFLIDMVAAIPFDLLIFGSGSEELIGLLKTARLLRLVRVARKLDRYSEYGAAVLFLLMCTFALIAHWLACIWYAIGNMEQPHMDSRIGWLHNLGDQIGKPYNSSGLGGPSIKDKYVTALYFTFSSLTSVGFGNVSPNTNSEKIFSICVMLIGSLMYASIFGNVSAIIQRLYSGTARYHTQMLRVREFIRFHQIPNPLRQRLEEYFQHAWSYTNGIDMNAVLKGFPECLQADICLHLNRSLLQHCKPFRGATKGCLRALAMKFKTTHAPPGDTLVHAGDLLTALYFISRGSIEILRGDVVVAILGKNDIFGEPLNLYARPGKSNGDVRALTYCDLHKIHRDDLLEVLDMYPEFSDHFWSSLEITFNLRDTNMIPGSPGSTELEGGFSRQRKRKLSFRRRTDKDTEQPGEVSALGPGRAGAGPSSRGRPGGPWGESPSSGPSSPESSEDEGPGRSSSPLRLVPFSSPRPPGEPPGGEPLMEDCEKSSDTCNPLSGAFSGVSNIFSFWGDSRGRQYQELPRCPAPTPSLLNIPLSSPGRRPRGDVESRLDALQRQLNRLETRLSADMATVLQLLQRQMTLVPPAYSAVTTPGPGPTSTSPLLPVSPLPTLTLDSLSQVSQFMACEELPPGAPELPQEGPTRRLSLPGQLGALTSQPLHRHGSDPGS
measure.name: Ki

COc1cc(Cl)ccc1O[C@@H](c1ccccc1)[C@@H]1CNCCO1 3.3 µM

---

target: UniProt:P05177
Sequence (P05177 whole entry): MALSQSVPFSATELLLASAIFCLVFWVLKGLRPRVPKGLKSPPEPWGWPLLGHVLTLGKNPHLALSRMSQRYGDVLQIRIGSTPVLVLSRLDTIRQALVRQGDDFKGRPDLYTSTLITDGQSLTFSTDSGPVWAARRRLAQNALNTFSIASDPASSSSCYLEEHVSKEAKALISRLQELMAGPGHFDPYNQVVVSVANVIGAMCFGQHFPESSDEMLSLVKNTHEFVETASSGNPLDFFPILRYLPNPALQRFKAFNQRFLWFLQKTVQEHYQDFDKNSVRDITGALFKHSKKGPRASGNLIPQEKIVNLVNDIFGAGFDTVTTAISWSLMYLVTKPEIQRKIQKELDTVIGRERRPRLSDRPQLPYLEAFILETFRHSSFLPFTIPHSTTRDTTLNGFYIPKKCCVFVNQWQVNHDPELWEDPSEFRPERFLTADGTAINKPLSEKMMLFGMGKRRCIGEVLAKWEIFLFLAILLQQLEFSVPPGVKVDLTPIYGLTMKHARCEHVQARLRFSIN
measure.name: IC50

COc1cc(Cl)ccc1O[C@@H](c1ccccc1)[C@@H]1CNCCO1 > 29 µM

---

target: Sodium-dependent dopamine transporter (Homo sapiens, UniProt Q01959)
pKi: −log10 of the molar value.
Response key: Met means pKi >= 6; Not met means pKi < 6.

compound	tested.on	label
COc1cc(Cl)ccc1O[C@@H](c1ccccc1)[C@@H]1CNCCO1	Sodium-dependent dopamine transporter (Homo sapiens, UniProt Q01959)	Not met
CCOc1cc(Cl)ccc1OC(c1ccccc1)C1CNCCO1 (racemic; anti)	Sodium-dependent dopamine transporter (Homo sapiens, UniProt Q01959)	Not met
Clc1cccc(O[C@@H](c2ccccc2)[C@@H]2CNCCO2)c1Cl	Sodium-dependent dopamine transporter (Homo sapiens, UniProt Q01959)	Met
COc1cc(Cl)ccc1O[C@@H](c1ccc(C)cc1)[C@@H]1CNCCO1	Sodium-dependent dopamine transporter (Homo sapiens, UniProt Q01959)	Not met
Fc1cccc(O[C@H](c2ccccc2)[C@H]2CNCCO2)c1F	Sodium-dependent dopamine transporter (Homo sapiens, UniProt Q01959)	Met
CCOc1c(Cl)cccc1OC(c1ccccc1)C1CNCCO1 (racemic; anti)	Sodium-dependent dopamine transporter (Homo sapiens, UniProt Q01959)	Not met
COc1cc(Cl)ccc1OC(c1ccccc1)C1CNCCO1 (racemic; anti)	Sodium-dependent dopamine transporter (Homo sapiens, UniProt Q01959)	Not met
COc1cc(F)ccc1O[C@@H](c1ccccc1)[C@@H]1CNCCO1	Sodium-dependent dopamine transporter (Homo sapiens, UniProt Q01959)	Not met
Fc1cccc(O[C@@H](c2ccccc2)[C@@H]2CNCCO2)c1F	Sodium-dependent dopamine transporter (Homo sapiens, UniProt Q01959)	Not met

---

target: Sodium-dependent dopamine transporter (Homo sapiens, UniProt Q01959)
The following ranges of Ki define the classes used here: Low (below 1000 nM), Mid (1000 nM to below 5000 nM), High (5000 nM or more)

molecule	label
Fc1ccc(O[C@H](c2ccccc2)[C@H]2CNCCO2)c(Cl)c1	Low
COc1ccc(O[C@@H](c2ccccc2)[C@@H]2CNCCO2)c(Cl)c1	Mid
COc1cc(Cl)ccc1O[C@@H](c1cccc(F)c1)[C@@H]1CNCCO1	High
Cc1cc(F)ccc1O[C@H](c1ccccc1)[C@H]1CNCCO1	Low
c1ccc([C@@H](Oc2cccc3c2OCC3)[C@H]2CNCCO2)cc1	High
CCOc1cc(Cl)ccc1OC(c1ccccc1)C1CNCCO1 (racemic; syn)	Mid
Cc1cc(F)ccc1O[C@@H](c1ccccc1)[C@@H]1CNCCO1	Mid
COc1cc(Cl)ccc1O[C@H](c1ccccc1)[C@H]1CNCCO1	Mid

---

experiment: Metabolic stability in human hepatocytes; format: ADME, cell-based, Liver, Hepatocyte
measure.name: half-life (h)

COc1cc(Cl)ccc1O[C@@H](c1ccccc1)[C@@H]1CNCCO1 3.1

---

The following compounds each carry a recorded Ki for Sodium-dependent serotonin transporter (Homo sapiens).

compound	Ki (µM)
c1ccc([C@H](Oc2cccc3c2OCC3)[C@@H]2CNCCO2)cc1	1.8
Cc1cc(F)ccc1O[C@@H](c1ccccc1)[C@@H]1CNCCO1	0.185
COc1cc(F)ccc1O[C@@H](c1ccccc1)[C@@H]1CNCCO1	0.74
c1ccc([C@@H](Oc2cccc3c2OCC3)[C@H]2CNCCO2)cc1	0.02
CCOc1c(Cl)cccc1OC(c1ccccc1)C1CNCCO1 (racemic; syn)	0.24
COc1ccc(O[C@@H](c2ccccc2)[C@@H]2CNCCO2)c(Cl)c1	0.096

---

assay: Inhibition of sodium channel site 2
pKi: −log10 of the molar value.
measure.name: pKi

COc1cc(Cl)ccc1O[C@@H](c1ccccc1)[C@@H]1CNCCO1 5.92
